# System tested: DLG1_3, Q12959
# Sequence (Q12959 457-571): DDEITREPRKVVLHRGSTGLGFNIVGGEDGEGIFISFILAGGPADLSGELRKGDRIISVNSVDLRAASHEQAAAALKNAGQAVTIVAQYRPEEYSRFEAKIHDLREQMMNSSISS
# Assay name: holdup assay
# Design: key: below the threshold = too weak to quantify, mostly under pKd 3.1 to 4
# Measurement context: plain residues with an end cap or a label only (N-terminal biotin on a linker: ahx)
The following binders are shown together with reported pKd values.
Assay metric: pKd

1. QPRTWLQSPV [RTKN, Q9BST9]; 4.11
2. HTHSYIETHV [CNKSR2, Q8WXI2]; 3.85
3. QDEKVKESYV [ABCA1, O95477]; 3.76
